- MEASUREMENT_TARGET: T1, Extracellular domain of cyno PD1 (cPD1-ECD) (Macaca fascicularis (cynomolgus))
- T1 construct: Expressed with a hexahistidine tag or as Fc fusion; also called cynoPD1-ECD; cynoPD-1-ECD
- T1 chain: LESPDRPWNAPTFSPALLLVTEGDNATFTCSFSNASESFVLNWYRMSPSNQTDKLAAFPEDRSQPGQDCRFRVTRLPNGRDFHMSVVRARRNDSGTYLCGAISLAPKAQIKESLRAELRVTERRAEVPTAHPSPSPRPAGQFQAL
- ASSAY_EXPLANATION: SPR ProteOn, captured mAb, cynoPD1-ECD analyte;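 further: ProteOn XPR36 SPR with antibodies held by anti-IgG Fc on a GLC chip, on-rate, off-rate and KD derived from a Langmuir one-to-one fit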
pKd: −log10 of the molar value.
Tag: label 1 if measured pKd is not below 8, label 0 if it is.

# count of solved cases: 4
PD1B114 (antibody, human IgG2, kappa, V domains shown, IgG2sigma/kappa; also called PD1H24/PH9L3) VH: QVQLVQSGAEVKKPGSSVKVSCKASGGTFSSYAISWVRQAPGQGLEWMGGIIPIFGTANYAQKFQGRVTITADESTSTAYMELSSLRSEDTAVYYCARPGLAAAYDTGNLDYWGQGTLVTVSS VL: EIVLTQSPATLSLSPGERATLSCRASQSVSSYLAWYQQKPGQAPRLLIYDASNRATGIPARFSGSGSGTDFTLTISSLEPEDFAVYYCQQRSNWPLTFGQGTKVEIKR: label 0
PD1B187 (antibody, V domains shown, Tested as IgG2sigma; also called PD1H3/PD1L148) VH: QVQLVQSGAEVKKPGSSVKVSCKASGGTFSSYAISWVRQAPGQGLEWMGGIIPIFGTANYAQKFQGRVTITADESTSTAYMELSSLRSEDTAVYYCARPGLAAAYDTGSLDYWGQGTLVTVSS VL: EIVLTQSPATLSLSPGERATLSCRASQSVRSYLAWYQQKPGQAPRLLIYDASNRATGIPARFSGSGSGTDFTLTISSLEPEDFAVYYCQQRNYWPLTFGQGTKVEIK: label 1
PD1B175 (antibody, V domains shown, Tested as IgG2sigma; also called PD1H163/PH9L3) VH: QVQLVQSGAEVKKPGSSVKVSCKASGGTFKSYVIHWVRQAPGQGLEWMGGIIPIFGTANYAQKFQGRVTITADESTSTAYMELSSLRSEDTAVYYCARGYVRATGMLDYWGQGTLVTVSS VL: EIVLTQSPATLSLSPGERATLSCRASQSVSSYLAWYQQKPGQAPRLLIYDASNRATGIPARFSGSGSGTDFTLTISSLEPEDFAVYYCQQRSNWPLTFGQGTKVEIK: label 0
PD1B183 (antibody, human IgG2, kappa, V domains shown, IgG2sigma/kappa; VH 43, VL 54; also called PD1H3/PD1L109) VH: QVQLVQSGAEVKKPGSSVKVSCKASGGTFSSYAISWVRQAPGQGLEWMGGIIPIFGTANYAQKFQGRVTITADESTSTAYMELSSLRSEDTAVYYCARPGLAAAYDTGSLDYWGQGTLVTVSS VL: EIVLTQSPATLSLSPGERATLSCRASQSVSSYLAWYQQKPGQAPRLLIKDASNRATGIPARFSGSGSGTDFTLTISSLEPEDFAVYYCQQRGYWPLTFGQGTKVEIKR: label 0

[ask] Identify whether the reported pKd of the following binder is 8 or greater: PD1B11 (antibody, V domains shown, Tested as IgG2sigma/kappa; also called PD1H3/PH9L3) VH: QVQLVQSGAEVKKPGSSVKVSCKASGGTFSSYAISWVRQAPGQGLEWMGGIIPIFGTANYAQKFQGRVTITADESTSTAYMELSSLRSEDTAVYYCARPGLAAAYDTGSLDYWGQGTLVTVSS VL: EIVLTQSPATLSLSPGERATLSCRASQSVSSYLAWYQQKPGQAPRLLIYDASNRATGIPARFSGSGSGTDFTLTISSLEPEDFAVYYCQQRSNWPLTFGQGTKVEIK
[reply] label 0

Value source: patent US20210277110A1
